Recorded values, source ChEMBL document CHEMBL3988442.

Organism: Homo sapiens
method_description: To identify inhibition of the IFN signalling (Jak-Stat) pathway via expression of an eGFP reporter gene under the control of an IFN-stimulated response element (ISRE) containing MxA promoter.
Format: functional
Set-up: scale not given: direction of the effect not stated beside the values
stated_conditions: 30 µM
metric: Percent Effect (%)
Supply the numeric figure in %, leaving out any unit text.

[Q] Return reported Percent Effect; argument: CCCn1[nH]cc/c1=N\C(=O)CN1CCCC1c1c(C)nn(C)c1C (stereo unspecified)
[A] -0.266

[Q] Return reported Percent Effect; argument: CN(C)CCN1CCOCC2(C1)CN(Cc1ccsc1)CCO2 (stereo unspecified)
[A] -0.367

[Q] Return reported Percent Effect; argument: CCc1cnc(CN2CCCC2c2noc(C3CC3)n2)o1 (stereo unspecified)
[A] 25.5

[Q] Return reported Percent Effect; argument: CCC(CC)NC(=O)Cn1nc(C)nc1-c1ccccc1
[A] 21.4

[Q] Return reported Percent Effect; argument: COC(=O)c1ccc(C(=O)NS(=O)(=O)c2cncc(Br)c2)cc1
[A] 26.4

[Q] Return reported Percent Effect; argument: Cc1noc(Cl)c1CCC(=O)N1CCCCC1Cn1cccn1 (stereo unspecified)
[A] -6.24
